# system tested: Serum paraoxonase/arylesterase 1 (Homo sapiens, UniProt P27169)
# Sequence (P27169 whole entry): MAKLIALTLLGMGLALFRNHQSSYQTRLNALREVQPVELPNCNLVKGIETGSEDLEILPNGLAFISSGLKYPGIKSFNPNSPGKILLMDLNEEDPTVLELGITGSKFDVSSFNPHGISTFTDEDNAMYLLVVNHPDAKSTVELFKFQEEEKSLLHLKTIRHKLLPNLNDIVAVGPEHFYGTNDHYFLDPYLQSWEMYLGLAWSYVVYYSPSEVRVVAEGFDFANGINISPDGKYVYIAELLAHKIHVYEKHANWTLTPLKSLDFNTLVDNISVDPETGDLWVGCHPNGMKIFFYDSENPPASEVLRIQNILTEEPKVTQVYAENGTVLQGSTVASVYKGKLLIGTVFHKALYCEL
# experimental details: PON Activity Assay
pKi: −log10 of the molar value. Structures can show the parent of a compound that is named as a salt.
value kind: pKi

>>> reading("CCN[C@@H]1C[C@H](N)[C@H](O[C@H]2OC(CN)=CC[C@H]2N)[C@H](O)[C@H]1O[C@H]1OC[C@](C)(O)[C@H](NC)[C@H]1O [Netilmycin sulfate]")
2.43
>>> reading("CN[C@H]1[C@@H](O[C@@H]2[C@@H](O[C@H]3[C@H](O)[C@@H](O)[C@H](N=C(N)N)[C@@H](O)[C@@H]3N=C(N)N)O[C@H](C)[C@@]2(O)C=O)O[C@H](CO)[C@@H](O)[C@@H]1O [Streptomycin sulfate]")
1.25
>>> reading("CCC[C@@H]1C[C@@H](C(=O)N[C@@H]([C@H]2O[C@H](SC)[C@H](O)[C@@H](O)[C@H]2O)[C@@H](C)O)N(C)C1")
1.74
>>> reading("CN(C)[C@@H]1C(=O)C(C(N)=O)=C(O)[C@@]2(O)C(=O)C3=C(O)c4c(O)cccc4[C@@](C)(O)[C@H]3[C@H](O)[C@@H]12 [Oxytetracycline hydrochloride]")
3.70
>>> reading("CCC[C@@H]1C[C@@H](C(=O)N[C@@H]([C@H]2O[C@H](SC)[C@H](OP(=O)(O)O)[C@@H](O)[C@H]2O)[C@H](C)Cl)N(C)C1 [Clindamycin phosphate]")
1.45
